test system: SR leukemia; experiment: NCI tumour cell line growth inhibition, 48 h
Property Name: TGI

INPUT: Which TGI is reported for this molecule? "O=[N+]([O-])c1ccc(NC(=S)N=Nc2c(O)[nH]c3ccc(Br)cc23)cc1"
OUTPUT: 42.7 µM

INPUT: Consider next the molecule "O=C1c2cc(Cl)ccc2S(=O)(=O)c2c(NCCCNCCO)nc3ccccc3c21" in the same way.
OUTPUT: 5.11 µM

INPUT: Quick one: "CCCn1cnc2c(SCc3ccccc3Cl)nc(N)nc21"
OUTPUT: 14.2 µM

INPUT: How about this molecule: COc1cc(C2NC(=O)c3ccccc3N2)ccc1OCCCCCOc1c(OC)cc(C2=NOC(c3cc(OC)c(OC)c(OC)c3)C2)cc1OC (centres undefined)
OUTPUT: > 100 µM

INPUT: Lookup O=C(O)C(CO)NC(=O)n1c2ccccc2c2ccccc21 (centres undefined)
OUTPUT: > 100 µM

INPUT: Next up: "CCCCN=C(NC#N)NCCCC"
OUTPUT: > 100 µM

INPUT: Can you check NC(=O)C(=O)N/N=C(\CC1(O)C(=O)Nc2ccccc21)c1ccc2ccccc2c1 (centres undefined) next?
OUTPUT: 44.5 µM

INPUT: Similarly, CCNC(=O)C1CCCN1C(=O)C(CCCN=C(N)N)NC(=O)C(CC(C)C)NC(=O)C(Cc1c[nH]c2ccccc12)NC(=O)C(Cc1ccc(O)cc1)NC(=O)C(CO)NC(=O)C(Cc1c[nH]c2ccccc12)NC(=O)C(Cc1cnc[nH]1)NC(=O)C1CCC(=O)N1 (centres undefined) ?
OUTPUT: > 100 µM

INPUT: Next molecule up: COc1ccc2c(c1)CN1C(=N2)CSC1c1ccccc1Cl (centres undefined)
OUTPUT: 27 µM

====

Exercise: state measured TGI for each of the compounds provided.
tested on: TK-10 renal; assay: NCI tumour cell line growth inhibition, 48 h
Where a SMILES comes first, the peptide text is derived from it. The star is where a group is joined. Cbz = O=C(OCc1ccccc1)*; NHNH2 = NN*

INPUT: Please give the measured TGI for this compound: O=C1C2c3[nH]c4ccccc4c3C3CCCCCCC3C2C(=O)N1c1ccccc1 (configuration not stated)
OUTPUT: 27 µM

INPUT: Let us now turn to "COC(=O)/C=C/c1cc(OC)c(OC)c(OC)c1"
OUTPUT: > 100 µM

INPUT: One more compound: COc1ccc2c(c1)CN1C(=N2)CSC1c1ccccc1Cl (configuration not stated)
OUTPUT: 68 µM

INPUT: Could you do the same for "CC(=O)CNC(=O)OC(C)(C)C" , please?
OUTPUT: > 100 µM

INPUT: Also O=C(O)C(CS)N=c1c2ccccc2n(O)c2ccccc12 (configuration not stated) ?
OUTPUT: > 100 µM

INPUT: Moving on to the next compound: "CCOc1cc(-c2nc3ccccn3c2/N=C/c2cc(Br)ccc2O)ccc1O"
OUTPUT: 48.7 µM

INPUT: Likewise for "CN(C)CCn1c(=O)c2ccc(NCCCN(C)CCCNc3ccc4c(=O)n(CCN(C)C)c(=O)n5c6ccc([N+](=O)[O-])cc6c(=O)c3c45)c3c(=O)c4cc([N+](=O)[O-])ccc4n(c1=O)c23" ?
OUTPUT: 1.52 µM

INPUT: Further, for C=CCOCCCCC(C(C)=O)C(=O)OC (configuration not stated) ?
OUTPUT: > 100 µM

INPUT: For "Oc1ccc(CN2CCC(N3CCCCC3)CC2)c2cccnc12" then?
OUTPUT: > 100 µM

INPUT: Please answer likewise for "C/C(CC(=O)Nc1cc(Cl)c(Cl)cc1Cl)=N\NC(N)=O"
OUTPUT: > 100 µM

INPUT: Okay, and CCC(C(=O)c1ccc(OC)c(OC)c1)N(C(=O)C(F)(F)F)C(C)c1ccccc1 (configuration not stated) ?
OUTPUT: > 100 µM

INPUT: Next: "COc1c(Br)cc(CC(N)=O)c(O)c1Br"
OUTPUT: > 100 µM

INPUT: # iterate: COC(=O)CC(NC(=O)OCc1ccccc1)C(=O)NC(CC(=O)OC)C(=O)NC(CC(=O)OC)C(=O)NC(CC(=O)OC)C(=O)NC(CC(=O)OC)C(=O)NC(CC(=O)OC)C(=O)NN (configuration not stated) (Cbz-D(OMe)D(OMe)D(OMe)D(OMe)D(OMe)D(OMe)-NHNH2; configuration not given here)
OUTPUT: > 100 µM

INPUT: Would you mind doing "COc1ccc(Nc2nc3c([nH]2)c(=O)n(C)c(=O)n3C)cc1" as well?
OUTPUT: > 10 µM

INPUT: Same thing, different compound: "Nc1ccc(S(=O)(=O)Nc2nc3ccccc3nc2N2CCCCC2)cc1"
OUTPUT: > 100 µM

INPUT: Entry "Cc1ccc2c(c1)[n+]([O-])c(N)n[n+]2[O-]" please
OUTPUT: > 100 µM

INPUT: Now this one: "O=C(c1ccccc1)c1nnc(C(=O)c2ccccc2)nn1"
OUTPUT: > 344 µM
